biological target: human prostanoid TP receptor (Homo sapiens, UniProt P21731); construct: expressed in transfected cells; experiment: PG antagonist activity, Ca2+ signal in human recombinant prostanoid receptor stable cell line; format: cell-based; details: parameter and unit not given
Sequence (P21731 whole entry): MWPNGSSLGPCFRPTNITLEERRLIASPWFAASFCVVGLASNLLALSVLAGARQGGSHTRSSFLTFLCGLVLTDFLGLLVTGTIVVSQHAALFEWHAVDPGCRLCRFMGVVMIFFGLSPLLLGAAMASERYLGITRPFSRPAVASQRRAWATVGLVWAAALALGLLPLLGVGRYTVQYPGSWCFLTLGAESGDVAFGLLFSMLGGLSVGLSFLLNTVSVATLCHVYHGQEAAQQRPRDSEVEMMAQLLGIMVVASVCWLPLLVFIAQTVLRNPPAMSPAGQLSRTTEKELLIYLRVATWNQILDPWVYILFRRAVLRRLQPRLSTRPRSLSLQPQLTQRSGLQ
// values below are reported TP (PG antagonist activity)

# compound, subjectOfTest, TP (PG antagonist activity)
measured = [
    ("O=C(O)/C=C/c1ccc(F)cc1C[C@@H]1C(c2nc(C(=O)NCCCCC3CCCCC3)co2)C2CC[C@H]1O2 (stereo partly drawn)", "human prostanoid TP receptor (Homo sapiens, UniProt P21731)", "<1"),
    ("CCCCCCCCCNC(=O)c1coc(C2C3CCC(O3)C2Cc2cc(F)ccc2/C=C/C(=O)O)n1 (stereo not drawn)", "human prostanoid TP receptor (Homo sapiens, UniProt P21731)", "<1"),
    ("CCCCCCCCNC(=O)c1coc(C2C3CCC(O3)C2Cc2cc(F)ccc2/C=C/C(=O)O)n1 (stereo not drawn)", "human prostanoid TP receptor (Homo sapiens, UniProt P21731)", "<1"),
    ("CCCCCCCCCNC(=O)c1coc(C2C3CC[C@@H](O3)[C@@H]2Cc2cc(F)ccc2CCC(=O)O)n1 (stereo partly drawn)", "human prostanoid TP receptor (Homo sapiens, UniProt P21731)", "<1"),
    ("CCCCCCCCNC(=O)c1coc(C2C3CCC(O3)C2Cc2cc(F)ccc2CCC(=O)O)n1 (stereo not drawn)", "human prostanoid TP receptor (Homo sapiens, UniProt P21731)", "<1"),
    ("O=C(O)CCc1ccc(F)cc1CC1C2CCC(O2)C1c1nc(C(=O)NCCCCC2CCCCC2)co1 (stereo not drawn)", "human prostanoid TP receptor (Homo sapiens, UniProt P21731)", "<1"),
]

###

target: human prostanoid EP1 receptor (Homo sapiens, UniProt P34995); construct: expressed in transfected cells; experiment: PG antagonist activity, Ca2+ signal in human recombinant prostanoid receptor stable cell line; type: cell-based; settings: parameter and unit not given
Sequence (P34995 whole entry): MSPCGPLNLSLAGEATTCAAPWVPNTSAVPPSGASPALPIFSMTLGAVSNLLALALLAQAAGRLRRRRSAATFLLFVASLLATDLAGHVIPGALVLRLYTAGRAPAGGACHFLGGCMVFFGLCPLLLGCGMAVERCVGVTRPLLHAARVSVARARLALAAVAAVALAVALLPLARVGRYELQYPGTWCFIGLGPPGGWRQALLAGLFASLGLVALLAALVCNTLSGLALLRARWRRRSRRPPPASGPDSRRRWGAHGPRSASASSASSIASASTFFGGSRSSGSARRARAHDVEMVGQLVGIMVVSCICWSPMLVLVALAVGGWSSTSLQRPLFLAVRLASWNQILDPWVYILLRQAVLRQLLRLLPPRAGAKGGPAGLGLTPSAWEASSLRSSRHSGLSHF
parameter: EP1 (PG antagonist activity)

# compound, subjectOfTest, result
data = [
    ("CCCCCCCCCNC(=O)c1coc(C2C3CCC(O3)C2Cc2cc(F)ccc2/C=C/C(=O)O)n1 (stereo not drawn)", "human prostanoid EP1 receptor (Homo sapiens, UniProt P34995)", 4100),
    ("CCCCCCCCNC(=O)c1coc(C2C3CCC(O3)C2Cc2cc(F)ccc2CCC(=O)O)n1 (stereo not drawn)", "human prostanoid EP1 receptor (Homo sapiens, UniProt P34995)", 1400),
    ("O=C(O)CCc1ccc(F)cc1CC1C2CCC(O2)C1c1nc(C(=O)NCCCCC2CCCCC2)co1 (stereo not drawn)", "human prostanoid EP1 receptor (Homo sapiens, UniProt P34995)", 1750),
    ("CCCCCCCCNC(=O)c1coc(C2C3CCC(O3)C2Cc2cc(F)ccc2/C=C/C(=O)O)n1 (stereo not drawn)", "human prostanoid EP1 receptor (Homo sapiens, UniProt P34995)", 2000),
    ("CCCCCCCCCNC(=O)c1coc(C2C3CC[C@@H](O3)[C@@H]2Cc2cc(F)ccc2CCC(=O)O)n1 (stereo partly drawn)", "human prostanoid EP1 receptor (Homo sapiens, UniProt P34995)", 660),
    ("O=C(O)/C=C/c1ccc(F)cc1C[C@@H]1C(c2nc(C(=O)NCCCCC3CCCCC3)co2)C2CC[C@H]1O2 (stereo partly drawn)", "human prostanoid EP1 receptor (Homo sapiens, UniProt P34995)", 380),
]
